All values here come from PubChem BioAssay.

I'd be grateful if you could share measured composite z-score for these entries.
# target_system: Concanavalin-A (Canavalia ensiformis)
# run_description: compounds binding concanavalin A lectin – biochemical, small-molecule microarray, Alexa647 label, 635 nm, artefact control for SMM control protein annotation, primary screen (AID 1127);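 also: z combines 667 nm emission intensity with signal-to-noise across three replicate slides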
# assay_setup: ConA-A647 binding fluorescence, higher = more signal
Numbers only.

# annotated cases, reported composite z-score shown
>  <molecule>
C=C[C@@H](C)[C@@H](OC(=O)Nc1ccc(OC)cc1)c1ccc(O)c2ccccc12

>  <target_system>
Concanavalin-A (Canavalia ensiformis)

>  <measured>
0.323

$$$$
>  <molecule>
O=C(CS)NCCCCCCNC(=O)[C@H]1C[C@H]2C(=O)N3CCC[C@H]3C(=O)N2[C@H]1c1ccc(O)cc1

>  <target_system>
Concanavalin-A (Canavalia ensiformis)

>  <measured>
0.853

$$$$
>  <molecule>
COCCn1c(C(=O)N(C)C)cc2c1C[C@H]1CN(C(=O)c3ccccc3)[C@@](Cc3ccc(F)cc3)(C(=O)OC)[C@@H]21

>  <target_system>
Concanavalin-A (Canavalia ensiformis)

>  <measured>
0.787

$$$$
>  <molecule>
[N-]=[N+]=NCc1ccccc1C[C@]1(C(=O)NCC(O)CO)COC(c2ccc(OCCCO)cc2)=N1 (stereo partly drawn)

>  <target_system>
Concanavalin-A (Canavalia ensiformis)

>  <measured>
0.954

$$$$
>  <molecule>
O=S(=O)(NCCCO)c1ccc(Br)cc1

>  <target_system>
Concanavalin-A (Canavalia ensiformis)

>  <measured>
0.397

$$$$
>  <molecule>
COc1ccc(C(O)C2C=CC3C(=O)N(c4ccccc4)C(=O)C3N2Nc2ccccc2)c2ccccc12 (stereo not drawn)

>  <target_system>
Concanavalin-A (Canavalia ensiformis)

>  <measured>
0.69

$$$$
>  <molecule>
CN(C)CCCCNC(=O)[C@@H]1C[C@@H]2C(=O)N[C@@H](CCCCN)C(=O)N2[C@@H]1c1cccc(OCCO)c1

>  <target_system>
Concanavalin-A (Canavalia ensiformis)

>  <measured>
0.344

$$$$

Reported composite z-score for CC(C)(C)OC(=O)CC[C@]1(C(=O)NCC(O)CO)N=C(c2ccc(OCCCO)cc2)O[C@H]1c1ccccc1CN=[N+]=[N-] (stereo partly drawn) was 1

###

# run_description: JC-1 mitochondrial signal, unstimulated HepG2 cells – cell-based, JC-1 fluorescence, 24 h, 100 nL compound, profiling panel (AID 1167); also: test concentration not given here
# assay_setup: HepG2 mitochondrial potential, higher = more signal
outcome_measure: z-score
Numbers only.

# annotated cases, reported z-score shown
>  <structure_as_smiles>
O=C1O[C@@H](c2ccccc2)[C@@H](c2ccccc2)N2[C@@H](c3ccc(O)cc3)[C@]3(C(=O)Nc4ccc(C#CCCO)cc43)[C@@H](C(=O)O)[C@H]12

>  <z-score>
0.767

$$$$
>  <structure_as_smiles>
C=CC[C@@]1(C(=O)NCCN2CCOCC2)N=C(c2ccc(OCCCO)cc2)O[C@@H]1c1ccccc1CN=[N+]=[N-]

>  <z-score>
1.86

$$$$
>  <structure_as_smiles>
CCCNC(=O)[C@@]1(C)c2ccccc2C(=O)N(Cc2cc(F)cc(C(F)(F)F)c2)[C@H]1c1ccc(CO)cc1

>  <z-score>
2.08

$$$$
>  <structure_as_smiles>
COc1ccccc1CN1C(=O)c2ccccc2[C@](Cc2ccccc2I)(C(=O)NC2CC2)[C@@H]1c1ccc(CO)cc1

>  <z-score>
1.32

$$$$
>  <structure_as_smiles>
C=CCCN(CC#C[C@H]1Oc2ccccc2S(=O)(=O)N2CCC[C@@H]12)S(=O)(=O)c1ccc(C)cc1

>  <z-score>
0.825

$$$$
>  <structure_as_smiles>
O=C(NCc1ccccc1)[C@@H]1c2ccccc2C(=O)N(C2CCCCC2)[C@H]1c1ccc(CO)cc1

>  <z-score>
2.46

$$$$

Reported z-score for COc1cc(CO)cc(I)c1O[C@H]1C=C(C(=O)NCCO)C[C@@H](N(CCc2cccc(F)c2)C(=O)CCC2CCCC2)[C@@H]1O was -1.09

###

I'd be grateful if you could share measured z-score for these entries.
# run_description: blockers of DNA damage checkpoint Chk1 activation – imaging, HeLa, hydroxyurea, phospho-Chk1 antibody, percent positive cells, primary screen (AID 1186)
# assay_setup: hydroxyurea-induced phospho-Chk1 immunofluorescence imaging, higher = more signal
Calls of active or inactive are those of the source. No rule for the calls is given here.

>  <structure_as_smiles>
CCOC(=O)C1=CC[C@@H](c2ccccc2)N(S(=O)(=O)c2ccc(C)cc2)[C@H]1c1ccc(C#N)cc1

>  <measured>
0.972 (inactive)

$$$$
>  <structure_as_smiles>
CC(C)C[C@@H]1NC(=O)[C@@H]2C[C@H](C(=O)NCCCCN(C)C)[C@H](c3ccc(O)cc3)N2C1=O

>  <measured>
0.326 (inactive)

$$$$
>  <structure_as_smiles>
C=C[C@H](OC)[C@@H](OC(=O)Nc1ccc(SC)cc1)c1ccc(OCCO)cc1

>  <measured>
0.259 (inactive)

$$$$

// switching to the query compound
Reported z-score for Cc1ccc(S[C@]2(C(=O)NCC(C)C)CC(=O)N(Cc3ccccc3)[C@@H]2c2ccc(CO)cc2)cc1 was 0.306 (inactive)

###

# run_description: ATP-based viability of Huh7 replicon cells – cell-based, CellTiter-Glo luminescence, basal, 48 h, cytotoxicity control for HCV replication inhibitor project, primary screen (AID 1143);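 also: Huh7 hepatoma cells carrying a hepatitis C replication reporter with no stimulus; test concentration not given here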
# assay_setup: called active from +8 up or from −8 down
The source made the active and inactive calls.
# output must be one of active, inactive

Some solved entries appear below for comparison.
>  <compound>
CN(C)CCCCCCNC(=O)[C@@H]1C[C@@H]2C(=O)NCC(=O)N2[C@@H]1c1cccc(OCCO)c1

>  <class_label>
inactive

$$$$
>  <compound>
O=C(NCc1ccccc1)[C@@H]1c2ccccc2C(=O)N(C2CCCCC2)[C@H]1c1ccc(CO)cc1

>  <class_label>
inactive

$$$$
>  <compound>
C=C(C(=O)CC[C@@H](OC(=O)c1cccnc1)c1ccc(OCCO)cc1)C(C)C

>  <class_label>
active

$$$$

**Q:** Check the results log: what was the call for O=C1OCCC=C[C@H]2OC34C=CCN(c5ccc6ccccc6c5)C(=O)[C@H]3N(CCCCCCO)C(=O)[C@@H]4C12 (stereo partly drawn) ?
**A:** inactive

**Q:** Check the results log: what was the call for CN1C(=O)C2C(C1=O)C1C=C(c3ccc(CO)cc3)C2C(C2CC2)N1Cc1cc2c(cc1Br)OCO2 (stereo not drawn) ?
**A:** inactive

**Q:** Check the results log: what was the call for COC(=O)[C@@]1(Cc2ccccc2)[C@H]2c3cc(C(=O)N(C)C)n(Cc4ccccc4)c3C[C@H]2CN1C(=O)c1ccccc1 ?
**A:** inactive

**Q:** Check the results log: what was the call for CC1CC/C=C\[C@H]2OC34C=CCN(c5ccc6ccccc6c5)C(=O)[C@H]3N(CCCCCO)C(=O)[C@@H]4C2C(=O)O1 (stereo partly drawn) ?
**A:** inactive

**Q:** Check the results log: what was the call for CCCNC(=O)[C@@]1(C)c2ccccc2C(=O)N(Cc2ccc(OC(F)(F)F)cc2)[C@H]1c1ccc(CO)cc1 ?
**A:** inactive

###

# run_description: growth modulation of vineyard yeast isolate – strain RM11-1a, OD600, basal, 24 h, primary screen (AID 1177);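 also: cultures grown under basal conditions with no added stressor; test concentration not given here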
# assay_setup: S. cerevisiae RM11-1a growth, OD600, 24 h; higher = more signal, called active from +8 up or from −8 down
outcome_measure: z-score
Answers are plain numbers.

# annotated cases, reported z-score shown
>  <compound>
O=C1[C@H]2C=C(Br)[C@H](C[C@@H]2OCCOCCO)[C@@]12CO2

>  <z-score>
1.4

$$$$
>  <compound>
COc1ccc(C(=O)Nc2cccc(CN3C(=O)[C@@]4(O[C@@H](CCn5cc([C@H](O)c6ccccc6)nn5)[C@H]([Si](C)(C)c5ccc(OC)cc5)[C@H]4C)c4ccccc43)c2)cc1

>  <z-score>
0.588

$$$$
>  <compound>
O=C1O[C@@H](c2ccccc2)[C@@H](c2ccccc2)N2[C@@H](c3ccc(O)cc3)[C@]3(C(=O)Nc4ccccc43)[C@@H](C(=O)N3CCCCCCC3)[C@H]12

>  <z-score>
1.19

$$$$

Hello, I would appreciate it if you could give z-score for each entry below.
1. Cc1ccccc1/C=C/C=O
2. COc1ccc([Si](C)(C)[C@@H]2[C@@H](CCO)O[C@]3(C(=O)N(Cc4ccc(N5C(=O)c6cccc7cccc5c67)cc4)c4ccccc43)[C@H]2C)cc1
3. OCCCc1cc[n+](Cc2cccc(OC(F)(F)F)c2)cc1
4. Cc1ccc(N2C(=O)c3ccccc3[C@@H](C(=O)NC(C)C)[C@@H]2c2ccc(CO)cc2)nc1
5. O=C1C2C=CC(C(O)c3ccc(Br)cc3)N(n3cnnc3)C2C(=O)N1Cc1ccccc1 (centres undefined)
6. O=C1OCCC/C=C\[C@H]2OC34C=CCN(Cn5nnc6ccccc65)C(=O)[C@H]3N(CCCO)C(=O)[C@@H]4C12 (some centres undefined)
7. CC[C@@H]1C=C(C(=O)O)[C@H](c2ccc(C(C)C)cc2)N1S(=O)(=O)c1ccc(C)cc1

**A:**
-0.412
3.87
0.616
-0.434
-23
-0.44
-1.27

Hello, I would appreciate it if you could give z-score for each entry below.
1. CN(C)CCCCCCNC(=O)[C@@H]1C[C@@H]2C(=O)NCC(=O)N2[C@@H]1c1cccc(OCCO)c1
2. C#C[C@H](O[Si](C#CCCCCCC)(C(C)C)C(C)C)c1ccccc1
3. C=C[C@H](OC)[C@@H](OC(=O)Nc1ccc(SC)cc1)c1ccc(OCCO)cc1
4. CCCC[C@@H]1C[C@H]1[C@@H](NC(=O)c1ccco1)c1ccccc1
5. CCOC(=O)C[C@H]1[C@H](OC(=O)c2cc3ccccc3oc2=O)[C@@H](NC(=O)c2ccc3ccccc3c2)c2cc(OCCCO)ccc2N1C(=O)c1ccccc1
6. NC(=O)NCC#Cc1ccc2c(c1)[C@]1(C(=O)N2)[C@H](c2ccc(O)cc2)N2[C@H](c3ccccc3)[C@H](c3ccccc3)OC(=O)[C@H]2[C@@H]1C(=O)N1CCN(c2ncccn2)CC1
7. CCCCCN1CC=CC23O[C@@H]4C=CCCOC(=O)C4[C@H]2C(=O)N(CCCO)[C@@H]3C1=O (some centres undefined)

**A:**
1: 0.536; 2: -0.0669; 3: 0.39; 4: 0.586; 5: -0.283; 6: 0.517; 7: -0.126
